Data origin: patent US5219884A

Readings of inhibition at 0.01 µg/mL for the listed molecules
test system: human allogenic MLR (peripheral blood lymphocytes); assay: human allogenic MLR-suppressive activity; assay type: cell-based; conditions: Homo sapiens, Lymphocyte, donor A/donor B; 0.01 μg/ml; read-out: Suppression
recorded endpoint: inhibition at 0.01 µg/mL (%)

INSERT INTO assay_data (molecule, value_measured) VALUES
  ('CCCCCCC(=O)CCCCCC/C=C/CC1OC(=O)C(N)(CO)C1O (stereo not shown)', 65.8),
  ('CCCCCCC(O)CCCCCC/C=C/CC(O)C(O)C(N)(CO)C(=O)O (stereo not shown)', 81.7),
  ('CCCCCCC(=O)CCCCCC/C=C/CC(O)C(O)C(N)(CO)C(=O)O (stereo not shown)', 73.3),
  ('CCCCCCC(=O)CCCCCCCCCC(O)C(O)C(N)(CO)C(=O)O (stereo not shown)', 59.4);

###

Readings of Absorbancy for the listed compounds
tested on: CCRF-CEM; test: in vitro; format: cell-based, human; details: 10.0 μg/ml
recorded endpoint: Absorbancy

INSERT INTO measurements (compound, value_measured) VALUES
  ('CCCCCCC(=O)CCCCCC/C=C/CC1OC(=O)C(N)(CO)C1O (stereo not drawn) [Example 4]', 0.389),
  ('CCCCCCC(O)CCCCCCCCCC1OC(=O)C(N)(CO)C1O (stereo not drawn) [Example 10]', 0.645),
  ('CCCCCCC(=O)CCCCCCCCCC(O)C(O)C(N)(CO)C(=O)O (stereo not drawn) [Example 5]', 0.394),
  ('CCCCCCC(O)CCCCCCCCCC(O)C(O)C(N)(CO)C(=O)O (stereo not drawn) [Example 9]', 0.680),
  ('CCCCCCC(=O)CCCCCCCCCC1OC(=O)C(N)(CO)C1O (stereo not drawn) [Example 7]', 0.587),
  ('CCCCCCC(=O)CCCCCC/C=C/CC(O)C(O)C(N)(CO)C(=O)O (stereo not drawn) [Example 1]', 0.637),
  ('CCCCCCC(O)CCCCCC/C=C/CC(O)C(O)C(N)(CO)C(=O)O (stereo not drawn) [Example 6]', 0.475),
  ('CCCCCCC(O)CCCCCC/C=C/CC1OC(=O)C(N)(CO)C1O (stereo not drawn) [Example 8]', 0.665),
  ('CCCCCCC(=O)CCCCCC/C=C/CC1OC(=O)C(CO)(NC(C)=O)C1O (stereo not drawn) [Example 11]', 0.603);

###

test: in vitro; format: cell-based, human; conditions: human, kb cells, 0.1 μg/ml; read-out: Suppression
Readings of cytotoxicity at 72 h for the listed compounds
recorded endpoint: cytotoxicity at 72 h (%)

INSERT INTO measurements (compound, value_measured) VALUES
  ('CCCCCCC(O)CCCCCCCCCC(O)C(O)C(N)(CO)C(=O)O (stereo not drawn) [Example 9]', 0),
  ('CCCCCCC(O)CCCCCC/C=C/CC(O)C(O)C(N)(CO)C(=O)O (stereo not drawn) [Example 6]', 0),
  ('CCCCCCC(=O)CCCCCC/C=C/CC1OC(=O)C(N)(CO)C1O (stereo not drawn) [Example 4]', 19);

###

experiment: in vitro; format: cell-based, human; conditions: human, k562 cells, 100.0 μg/ml; read-out: Suppression
recorded endpoint: cytotoxicity at 72 h (%)

INSERT INTO measurements (compound, value_measured) VALUES
  ('CCCCCCC(=O)CCCCCC/C=C/CC1OC(=O)C(N)(CO)C1O (stereo not shown)', 98.9);

###

assay: in vitro; format: cell-based, human; conditions: human, ccrf-cem cells, 1.0 μg/ml; read-out: Suppression
Please respond with 1 when measured cytotoxicity at 72 h is strictly beneath 4%, and with -1 in all other cases.

INSERT INTO assay_data (molecule, qualitative_label) VALUES
  ('CCCCCCC(=O)CCCCCC/C=C/CC1OC(=O)C(CO)(NC(C)=O)C1O (centres unmarked)', -1),
  ('CCCCCCC(O)CCCCCCCCCC1OC(=O)C(N)(CO)C1O (centres unmarked)', -1),
  ('CCCCCCC(O)CCCCCC/C=C/CC1OC(=O)C(N)(CO)C1O (centres unmarked)', 1),
  ('CCCCCCC(O)CCCCCCCCCC(O)C(O)C(N)(CO)C(=O)O (centres unmarked)', 1),
  ('CCCCCCC(=O)CCCCCC/C=C/CC1OC(=O)C(N)(CO)C1O (centres unmarked)', -1),
  ('CCCCCCC(O)CCCCCC/C=C/CC(O)C(O)C(N)(CO)C(=O)O (centres unmarked)', -1),
  ('CCCCCCC(=O)CCCCCCCCCC1OC(=O)C(N)(CO)C1O (centres unmarked)', -1),
  ('CCCCCCC(=O)CCCCCCCCCC(O)C(O)C(N)(CO)C(=O)O (centres unmarked)', -1);

###

system: human allogenic MLR (peripheral blood lymphocytes); assay: human allogenic MLR-suppressive activity; type: cell-based; conditions: Homo sapiens, Lymphocyte, donor A/donor B; 0.1 μg/ml; read-out: Suppression
recorded endpoint: inhibition at 0.1 µg/mL (%)

INSERT INTO assay_data (compound, unit_annotation, value_measured) VALUES
  ('CCCCCCC(=O)CCCCCCCCCC(O)C(O)C(N)(CO)C(=O)O (stereo not shown) [Example 5]', '%', 87.1),
  ('CCCCCCC(O)CCCCCC/C=C/CC(O)C(O)C(N)(CO)C(=O)O (stereo not shown) [Example 6]', '%', 81.3),
  ('CCCCCCC(=O)CCCCCC/C=C/CC1OC(=O)C(N)(CO)C1O (stereo not shown) [Example 4]', '%', 89.2),
  ('CCCCCCC(=O)CCCCCC/C=C/CC(O)C(O)C(N)(CO)C(=O)O (stereo not shown) [Example 1]', '%', 79);

###

assay: cytotoxicity to mouse L929 cells; assay type: cell-based; conditions: mouse, l929 cells, 100 μg/ml; read-out: Suppression
recorded endpoint: cytotoxicity at 48 h (%)

INSERT INTO measurements (molecule, unit_annotation, value_measured) VALUES
  ('CCCCCCC(O)CCCCCC/C=C/CC1OC(=O)C(N)(CO)C1O (stereo not shown)', '%', 96),
  ('CCCCCCC(=O)CCCCCC/C=C/CC1OC(=O)C(CO)(NC(C)=O)C1O (stereo not shown)', '%', 91.8),
  ('CCCCCCC(O)CCCCCCCCCC1OC(=O)C(N)(CO)C1O (stereo not shown)', '%', 96),
  ('CCCCCCC(O)CCCCCCCCCC(O)C(O)C(N)(CO)C(=O)O (stereo not shown)', '%', 1);

###

assay: cytotoxicity to tumor cell line MOLT4; format: cell-based, human; conditions: human, molt4 cells, 1.0 μg/ml; read-out: Suppression
Hi, to clarify the labels: TRUE covers cytotoxicity at 72 h from 6% upward, FALSE covers anything below 6%.

INSERT INTO assay_data (molecule, qualitative_label) VALUES
  ('CCCCCCC(=O)CCCCCCCCCC(O)C(O)C(N)(CO)C(=O)O (centres unmarked)', 'FALSE'),
  ('CCCCCCC(=O)CCCCCC/C=C/CC1OC(=O)C(N)(CO)C1O (centres unmarked)', 'TRUE'),
  ('CCCCCCC(=O)CCCCCC/C=C/CC1OC(=O)C(CO)(NC(C)=O)C1O (centres unmarked)', 'FALSE'),
  ('CCCCCCC(O)CCCCCCCCCC(O)C(O)C(N)(CO)C(=O)O (centres unmarked)', 'TRUE'),
  ('CCCCCCC(O)CCCCCCCCCC1OC(=O)C(N)(CO)C1O (centres unmarked)', 'FALSE'),
  ('CCCCCCC(=O)CCCCCCCCCC1OC(=O)C(N)(CO)C1O (centres unmarked)', 'TRUE'),
  ('CCCCCCC(O)CCCCCC/C=C/CC(O)C(O)C(N)(CO)C(=O)O (centres unmarked)', 'FALSE'),
  ('CCCCCCC(O)CCCCCC/C=C/CC1OC(=O)C(N)(CO)C1O (centres unmarked)', 'FALSE');

###

test: in vitro; type: cell-based, human; settings: human, kb cells, 10.0 μg/ml; read-out: Suppression
Hi, to clarify the labels: 1.0 covers cytotoxicity at 72 h from 5% upward, 0.0 covers anything below 5%.

INSERT INTO results (compound, qualitative_label) VALUES
  ('CCCCCCC(=O)CCCCCC/C=C/CC1OC(=O)C(N)(CO)C1O (centres unmarked) [Example 4]', 1.0),
  ('CCCCCCC(=O)CCCCCCCCCC(O)C(O)C(N)(CO)C(=O)O (centres unmarked) [Example 5]', 0.0),
  ('CCCCCCC(O)CCCCCCCCCC(O)C(O)C(N)(CO)C(=O)O (centres unmarked) [Example 9]', 0.0),
  ('CCCCCCC(O)CCCCCC/C=C/CC1OC(=O)C(N)(CO)C1O (centres unmarked) [Example 8]', 0.0),
  ('CCCCCCC(O)CCCCCC/C=C/CC(O)C(O)C(N)(CO)C(=O)O (centres unmarked) [Example 6]', 0.0),
  ('CCCCCCC(=O)CCCCCCCCCC1OC(=O)C(N)(CO)C1O (centres unmarked) [Example 7]', 1.0),
  ('CCCCCCC(O)CCCCCCCCCC1OC(=O)C(N)(CO)C1O (centres unmarked) [Example 10]', 1.0),
  ('CCCCCCC(=O)CCCCCC/C=C/CC1OC(=O)C(CO)(NC(C)=O)C1O (centres unmarked) [Example 11]', 1.0);
